Hello, the source for this data is patent US20230159496A1, in case you need it.

tested on: SMN2 CJ mRNA; assay: Gene panel canonical junction qPCR assay, SMN2; type: cell-based; details: decrease in CJ mRNA levels, gene panel; read-out: SMN2 IC50
pIC50: −log10 of the molar value.
measured quantity: pIC50

Could you tell me which pIC50 is on file for Cc1cc(-c2ccc3c(=O)n(C4CCN(C)CC4)cnc3c2F)cc2cn(C)nc12 ?
6.00 to 7.00

* * *

system: HTT mRNA; experiment: Splicing assay (RT-qPCR) monitoring HTT canonical junction (CJ) and alternative junction (AJ) mRNA isoforms; type: cell-based; settings: decrease in CJ mRNA (50% response); A673 or K562 cells, 24 h treatment, top dose 10 uM; read-out: HTT CJ AC50
measured quantity: AC50

{"molecule": "Cc1nc2c(F)cc(-c3ccc4c(c3)CCN(C3CCNCC3)C4=O)cc2s1", "AC50": "> 10 µM"}
{"molecule": "Cn1cc2cc(-n3cnc4cc(N5CCNCC5)ccc4c3=O)ccc2n1", "AC50": "> 10 µM"}
{"molecule": "Cc1cn2nc(-c3ccc4c(c3)CCN(C3CCN(C)CC3)C4=O)cc(C)c2n1", "AC50": "1 to 10 µM"}
{"molecule": "Cc1nc2c(F)cc(-c3ccc4c(=O)n(C5CCNCC5)cnc4c3)cc2s1", "AC50": "1 to 10 µM"}
{"molecule": "Cc1nc2c(F)cc(-c3ccc4c(=O)n(C5CCNCC5)cnc4c3)cc2o1", "AC50": "0.1 to 1 µM"}
{"molecule": "Cc1cn2nc(-c3ccc4c(c3)CCN(C3CCN(C)C3)C4=O)cc(C)c2n1 (stereo not drawn)", "AC50": "> 10 µM"}
{"molecule": "O=c1c2ccc(-c3cn[nH]c3)cc2cnn1C1CCNCC1", "AC50": "> 10 µM"}
{"molecule": "Cc1cc(-c2ccc3nc(N4CCN(C)CC4)[nH]c(=O)c3c2)cc2cn(C)nc12", "AC50": "> 10 µM"}
{"molecule": "Cc1cn2cc(-c3ccc4c(=O)n(C5CCNCC5)cnc4c3)ncc2n1", "AC50": "1 to 10 µM"}
{"molecule": "Cc1cn2nc(-c3ccc4c(=O)n(C5CCCNCC5)ncc4c3)cc(C)c2n1 (stereo not drawn)", "AC50": "0.1 to 1 µM"}

Switching to the query record.
Could you tell me which AC50 is on file for Cc1cn2cc(-c3ccc4c(=O)n(C5CCNCC5)cnc4c3)nc2c(C)n1 ?
1 to 10 µM
